I'd appreciate it if you could supply reverse-splicing fitness values for the items below.
B1: Azoarcus group I ribozyme (parent)
chain: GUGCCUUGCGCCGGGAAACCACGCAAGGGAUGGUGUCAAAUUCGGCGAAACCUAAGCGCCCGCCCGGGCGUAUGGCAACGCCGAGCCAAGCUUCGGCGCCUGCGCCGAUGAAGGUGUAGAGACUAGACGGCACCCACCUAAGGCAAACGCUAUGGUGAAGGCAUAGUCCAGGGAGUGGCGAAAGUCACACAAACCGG

variants of: B1; experiment: reverse-splicing fitness (ratio to wild type); higher = more active; in vitro selection; Mg2+ level not given
Give bare numbers.

Solved entries:
>>> readout_number("C82U A111C C150G C169G U176A")
0.00576
>>> readout_number("A120G A145G C150U C169U U176A")
0.145
>>> readout_number("A111G A120C A145C C169U U176C")
0.061
>>> readout_number("C82G A111C A145G C150A C169U U176A")
0.0153
>>> readout_number("A111C A145U C150U C169G U176C")
0.0215

For each of the variants below, note its reverse-splicing fitness.
1. C82U A111G A120G A145U C150G C169U U176G
2. A111C A120U A145G C150A C169G U176A
3. C82A A111G A120C C169A U176A
4. C82G A145G C150A C169G U176A
5. A111U A120G A145C C169G U176A
6. C82U A111G A120G A145U C150A C169G U176C
7. C82A A111U A120U A145G C169U U176A
8. C82U A111G A145U C169U U176C

Result:
1. 0.0048
2. 0.00653
3. 0.0173
4. 0.017
5. 0.0371
6. 0.0137
7. 0.00414
8. 0.00988

For each of the variants below, note its reverse-splicing fitness.
1. C82A A111C A120U A145G C169G U176G
2. C82U A111C A120U A145G C150G C169A U176C
3. A111U A120G A145G C150G C169U U176A
4. C82U A120U U176C

Result:
1. 0.00244
2. 0.00788
3. 0.0113
4. 0.0796

For each of the variants below, note its reverse-splicing fitness.
1. C82U A111U A120C A145C C150G C169G
2. A111G A120U A145U C150U C169A
3. C82U A120C A145U C150A U176C
4. C82G A111C A120C A145C C150A
5. C82G A120G A145G C150U C169U U176A
6. C82A A111G A120U A145C C150G U176A
7. C82U A111C A120G A145G C169G U176A

Result:
0.00637
0.00473
0.0137
0.00907
0.0213
0.00295
0.019

For each of the variants below, note its reverse-splicing fitness.
1. A111C A120U A145G C150U U176C
2. C82A A120G U176A
3. A111C A120U A145U C150G C169U U176G
4. C82U A111G A120G C150A
5. C82A A120G A145C C169A U176C
6. C82G A111C A120U A145C C150A C169U U176G
7. C82U A120G A145G C150A C169G U176C

Result:
1: 0.239; 2: 0.0137; 3: 0.00279; 4: 0.00982; 5: 0.00741; 6: 0.00237; 7: 0.0255
